Conditions: dog, in vivo, po
Structures can show the parent of a compound that is named as a salt.
Listed here are compounds together with their documented AUC (mean ngh/mL ± SD).

[
  {
    "compound": "CCC1(c2cccc(OC(=O)NC(CC(C)C)C(=O)O)c2)CCCCN(C)C1.O=C(O)C(F)(F)F (mixture of isomers) [Meptazinol leucine carbamate TFA salt]",
    "AUC (mean ngh/mL ± SD)": 9.27
  },
  {
    "compound": "CCC1(c2cccc(O)c2)CCCCN(C)C1 (stereo not shown) [Meptazinol HCl]",
    "AUC (mean ngh/mL ± SD)": 15.6
  },
  {
    "compound": "CCC1(c2cccc(OC(=O)NC(C(=O)OC)C(C)C)c2)CCCCN(C)C1.Cl (mixture of isomers)",
    "AUC (mean ngh/mL ± SD)": 78.1
  },
  {
    "compound": "CCC1(c2cccc(OC(=O)NC(C)C(=O)O)c2)CCCCN(C)C1.Cl (mixture of isomers) [Meptazinol alanine carbamate HCl salt]",
    "AUC (mean ngh/mL ± SD)": 16.3
  }
]

* * *

Test: in vivo
Conditions: Beagle, dog, po, 0.5 mg, Oxymorphone valine carbamate Cmax
Where a name gives a salt, the structure may show the parent alone.

[
  {
    "compound": "CC(C)[C@H](NC(=O)Oc1ccc2c3c1OC1C(=O)CC[C@@]4(O)[C@@H](C2)N(C)CC[C@]314)C(=O)O (stereo partly shown) [Oxymorphone valine carbamate HCl]",
    "unitsLabel": "ng/mL",
    "Cmax": 75
  }
]

* * *

Conditions: pH 5.9
testReadout: Distilled water (pH 5.9): % remaining after 2h/20° C.

[
  {
    "compound": "COC12CCC3(CC1C(C)(O)C(C)(C)C)C1Cc4ccc(OC(=O)NC(CC(=O)O)C(=O)O)c5c4C3(CCN1CC1CC1)C2O5 (stereo not shown) [Buprenorphine-Asp-Carbamate]",
    "measuredValue": "100%"
  },
  {
    "compound": "COC12CCC3(CC1C(C)(O)C(C)(C)C)C1Cc4ccc(OC(=O)NC(Cc5ccccc5)C(=O)O)c5c4C3(CCN1CC1CC1)C2O5 (stereo not shown) [Buprenorphine phenylalanine carbamate]",
    "measuredValue": "99%"
  },
  {
    "compound": "CSCC[C@@H](NC(=O)Oc1ccc2c3c1OC1C(=O)CC[C@@]4(O)[C@@H](C2)N(C)CC[C@]314)C(=O)O (stereo partly shown) [Oxymorphone-Methio-Carbamate]",
    "measuredValue": "100%"
  },
  {
    "compound": "CN1CC[C@]23c4c5ccc(OC(=O)N[C@@H](Cc6ccccc6)C(=O)O)c4O[C@H]2C(=O)CC[C@@]3(O)[C@H]1C5 [Oxymorphone-Phe-Carbamate]",
    "measuredValue": "100%"
  }
]

Values were extracted from patent US20090186832A1.
